biological target: hNTS1R (Homo sapiens); construct: intact HT-29 colon carcinoma cells expressing the hNTS1R; host or cells: HT-29 human colon carcinoma cells; test: radioligand competition binding with [3H]UR-MK300 at intact HT-29 cells
Sequence (P30989 whole entry): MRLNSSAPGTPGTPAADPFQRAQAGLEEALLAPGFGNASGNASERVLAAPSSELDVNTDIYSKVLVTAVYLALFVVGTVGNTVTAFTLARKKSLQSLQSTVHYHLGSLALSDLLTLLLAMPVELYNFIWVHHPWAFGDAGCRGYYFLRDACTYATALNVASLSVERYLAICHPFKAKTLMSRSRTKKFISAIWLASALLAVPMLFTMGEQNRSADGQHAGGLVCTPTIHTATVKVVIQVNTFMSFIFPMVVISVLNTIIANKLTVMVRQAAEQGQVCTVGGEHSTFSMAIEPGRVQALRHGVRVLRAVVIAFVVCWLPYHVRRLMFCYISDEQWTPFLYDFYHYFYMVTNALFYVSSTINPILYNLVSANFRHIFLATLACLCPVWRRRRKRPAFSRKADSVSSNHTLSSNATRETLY
assayEndpoint: NTS1R Selectivity (Ratio Ki (NTS2R)/Ki (NTS1R))
// response body must contain only the number

Query: # query: NTS1R Selectivity (Ratio Ki (NTS2R)/Ki (NTS1R)) of entry CC(C)C[C@H](NC(=O)[C@@H](NC(=O)[C@H](Cc1ccc(O)cc1)NC(=O)[C@@H]1CCCN1C(=O)[C@H](CCCNC(=N)NC(=O)NCCCCN)N(C)C(=O)[C@@H](N)CCCNC(=N)N)C(C)(C)C)C(=O)O [Compound 11]
Result: 2.1

Query: # query: NTS1R Selectivity (Ratio Ki (NTS2R)/Ki (NTS1R)) of entry CN[C@@H](CCCNC(=N)N)C(=O)N[C@@H](CCCNC(N)=NC(=O)NCCCCNC(=O)CN1CCN(CC(=O)O)CCN(CC(=O)O)CCN(CC(=O)O)CC1)C(=O)N1CCC[C@H]1C(=O)N[C@@H](Cc1ccc(O)cc1)C(=O)N[C@H](C(=O)N[C@@H](CC(C)C)C(=O)O)C(C)(C)C [Compound 19]
Result: 4.6

Query: # query: NTS1R Selectivity (Ratio Ki (NTS2R)/Ki (NTS1R)) of entry CN[C@@H](CCCNC(N)=NC(=O)NCCCCNC(=O)CN1CCN(CC(=O)O)CCN(CC(=O)O)CCN(CC(=O)O)CC1)C(=O)N[C@@H](CCCNC(=N)N)C(=O)N1CCC[C@H]1C(=O)N[C@@H](Cc1ccc(O)cc1)C(=O)N[C@H](C(=O)N[C@@H](CC(C)C)C(=O)O)C(C)(C)C [Compound 21]
Result: 6.0

Query: # query: NTS1R Selectivity (Ratio Ki (NTS2R)/Ki (NTS1R)) of entry CN[C@@H](CCCNC(=N)N)C(=O)N[C@@H](CCCNC(=N)N)C(=O)N1CCC[C@H]1C(=O)N[C@@H](Cc1ccc(O)cc1)C(=O)N[C@H](C(=O)N[C@@H](CC(C)C)C(=O)O)C(C)(C)C [Compound 3, reference compound]
Result: 11

Query: # query: NTS1R Selectivity (Ratio Ki (NTS2R)/Ki (NTS1R)) of entry CC(C)C[C@H](NC(=O)[C@@H](NC(=O)[C@H](Cc1ccc(O)cc1)NC(=O)[C@@H]1CCCN1C(=O)[C@H](CCCNC(N)=NC(=O)NCCCCNC(=O)CN1CCN(CC(=O)O)CCN(CC(=O)O)CCN(CC(=O)O)CC1)N(C)C(=O)[C@@H](N)CCCNC(=N)N)C(C)(C)C)C(=O)O [Compound 22]
Result: 4.4

Query: # query: NTS1R Selectivity (Ratio Ki (NTS2R)/Ki (NTS1R)) of entry CN[C@@H](CCCNC(=N)N)C(=O)N[C@@H](CCCNC(=N)NC(=O)NCCCCNC(=O)CN1CCN(CC(=O)O)CCN(CC(=O)O)CCN(CC(=O)O)CC1)C(=O)N1CCC[C@H]1C(=O)N[C@@H](Cc1ccc(O)cc1)C(=O)N[C@H](C(=O)N[C@@H](CC(C)C)C(=O)O)C(C)(C)C [Compound 14]
Result: 2.8

Query: # query: NTS1R Selectivity (Ratio Ki (NTS2R)/Ki (NTS1R)) of entry CN[C@@H](CCCNC(=N)N)C(=O)N[C@@H](CCCNC(=N)NC(=O)NCCCCN)C(=O)N1CCC[C@H]1C(=O)N[C@@H](Cc1ccc(O)cc1)C(=O)N[C@H](C(=O)N[C@@H](CC(C)C)C(=O)O)C(C)(C)C [Compound 8]
Result: 4.2

Alright, here's another compound for you.
Query: # query: NTS1R Selectivity (Ratio Ki (NTS2R)/Ki (NTS1R)) of entry CN[C@@H](CCCNC(N)=NC(=O)NCCCCN)C(=O)N[C@@H](CCCNC(=N)N)C(=O)N1CCC[C@H]1C(=O)N[C@H](C(=O)N[C@H](C(=O)N[C@@H](CC(C)C)C(=O)O)C(C)(C)C)C(C)(C)c1ccc(O)cc1 [Compound 52]
Result: 1.2
